Cited source for all entries: ChEMBL document CHEMBL1201862

# Test system: KM-20L2
# Assay Protocol: NCI tumour cell line growth inhibition, 48 h
The source made the active and inactive calls. Rule as the data show it: active = GI50 up to about 1.1 µM and inactive = higher.
GI50 listing for selected molecules.

INSERT INTO assay_data (molecule, property_measured, result) VALUES
  ('COc1ccccc1NC(=O)NS(=O)(=O)c1ccccc1', 'GI50', '> 100 µM (inactive)');

Now consider the entry below.
**Query** Given the molecule N=C(N)NCCCC(Nc1c2ccccc2nc2ccccc12)C(=O)O (stereo unspecified) , what is its reported GI50?
**Result** > 100 µM (inactive)

====

# Test system: UO-31
# Assay Protocol: NCI tumour cell line growth inhibition, 48 h
The source made the active and inactive calls. No stated cut-off is given here; in the data, active = GI50 up to about 1.1 µM and inactive = higher.
Property Measured: GI50

Use the examples below as a reference point.
INSERT INTO results (compound, property_measured, result) VALUES
  ('COc1cc(Nc2cnc3cc(C(F)(F)F)ccc3n2)cc(OC)c1OC', 'GI50', '> 100 µM (inactive)'),
  ('Oc1c2cc(Br)cc1CCc1cc(Br)cc(c1O)CC2', 'GI50', '12.8 µM (inactive)'),
  ('CCc1ccc2c(c1)/C(=C1/Nc3ccccc3C1=O)C(=O)N2', 'GI50', '7.38 µM (inactive)'),
  ('O=S(=O)(N/N=C/c1cccc(Cl)c1Cl)c1ccccc1', 'GI50', '94.4 µM (inactive)');

**Query** Data request, read-out GI50, for Cc1ccc(S(=O)(=O)N/N=C2/CC3CCC4CC2CC34)cc1 (stereo unspecified)
**Result** 25.4 µM (inactive)

**Query** Entry O=CC1C(Cl)=Nc2nc3ccccc3n2C1c1ccccc1 (stereo unspecified) : reported GI50 = ?
**Result** 14.7 µM (inactive)

**Query** Field request: GI50 | item: CSc1c2c(C)n[nH]c2nn1-c1ccccc1
**Result** 46.7 µM (inactive)
